System: PXR homodimer (NR concentration 270 nM)
Assay: PBM binding z-score (relative to random genomic background probes); higher = stronger binding; sequences stand for … in GC…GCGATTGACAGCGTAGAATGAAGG
Each entry below carries its reported PBM binding z-score.
The response must contain the number and no unit.

Some sequences with known PBM binding z-score results, for comparison:
[
  {
    "macromolecule_sequence": "CAAACTAGGTCAACGTCAAAGTCGGTTTGTGCCA",
    "PBM binding z-score": 0.241
  },
  {
    "macromolecule_sequence": "TTAGCAAGGTGAGCTGAGGTCGTTGATCCAACTC",
    "PBM binding z-score": 0.566
  },
  {
    "macromolecule_sequence": "TCGAGTAGGTTACCAATGTGGCATTCAGCTTTCT",
    "PBM binding z-score": -0.485
  },
  {
    "macromolecule_sequence": "CAAACTAGGTTACCGGAAGGTCAAAGTCCGCATG",
    "PBM binding z-score": 1.65
  },
  {
    "macromolecule_sequence": "CCTACTGGCCCAAAAAGGTCATTGATGCCGATAA",
    "PBM binding z-score": 2.07
  },
  {
    "macromolecule_sequence": "AACTCTAGGTAAAGTTCAGTGAAAGATCGATAGA",
    "PBM binding z-score": 1.53
  }
]

Query: Recorded PBM binding z-score of CCTGCTAGGTCATGGGCAGCTAATCTACAGTATG , please.
Reply: -0.682

Query: Recorded PBM binding z-score of CCGACTGGGGCATAAGGTGACCATAAGCCAGCCC , please.
Reply: -0.373

Query: Recorded PBM binding z-score of CAAACTAGGTCAAGTGGTCAAAGTCCGCTTCCCG , please.
Reply: 0.168

Query: Recorded PBM binding z-score of TCTATTAGTTGAAGGGCAACCGCCGAGTCCGTTT , please.
Reply: 0.698

Query: Recorded PBM binding z-score of CCTACTGGGTCAAGGTCATTGATCAGTCAAAGCA , please.
Reply: 2.3

Query: Recorded PBM binding z-score of AATACAGTGTCATCGTAGGCCAGAGTACGCACAG , please.
Reply: -0.156
